Data credit: the supplement of paper PMC10567573

B1: C22orf15 (parent)
chain: RGRHEQSPTSRPRKVSSLPPRSC

Variants of: B1
Test: protein stability index of a GFP-peptide fusion (GPS, HEK-293T) (PSI 1-6); higher = more stable;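 note: lentivirally expressed fusions sorted by FACS into six bins by GFP to DsRed ratio, PSI derived from sequencing read proportions per bin multiplied by bin number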
Settings: c terminus: native
Recorded Endpoint: protein stability index
Give the figure by itself; no unit, no explanation.

Look over these answered cases.
> print(dat)
   mutation.spec  value
1           S16P   2.77
2            P8R   4.11
3           P20C   1.58
4           S16V    3.6
5           P20A      3

If you can, please state the reported protein stability index value of S22L .
2.35

// lookup protein stability index for E5K
2.68

Can you share its protein stability index? I mean this variant: H4A
1.91

Look up protein stability index: H4R
3.58

Requested read-out: protein stability index. Entry: S16M
2.63

Please report the recorded protein stability index for V15H .
4.12

Any idea what protein stability index was measured for G2F ?
2.04

What value of protein stability index has been recorded for this entry: Q6Y
2.05

I would be grateful if you could share the reported protein stability index for R21Q .
4.51
